Values of IC50 reported for Lysine-specific demethylase 5A [1-739] (Homo sapiens) appear below.

{"columns": ["MOL SMILES", "IC50 [µM]"],
 "data": [
  ["O=C(O)c1ccnc(-c2cc(C(=O)NCCc3ccccc3)ccn2)c1", 20],
  ["Cc1[nH]c2c(C#N)cnn2c(=O)c1C(C)C", 1.5],
  ["O=C(Cc1ccc(Cl)cc1)Nc1cnccc1C(=O)O", 7]
]}

* * *

biological target: Lysine-specific demethylase 5C [1-789] (Homo sapiens, UniProt P41229); construct: 1-789; assay: Formaldehyde Dehydrogenase-Coupled Demethylase (FDH) Assay; settings: 25 °C
Sequence (P41229 1-789): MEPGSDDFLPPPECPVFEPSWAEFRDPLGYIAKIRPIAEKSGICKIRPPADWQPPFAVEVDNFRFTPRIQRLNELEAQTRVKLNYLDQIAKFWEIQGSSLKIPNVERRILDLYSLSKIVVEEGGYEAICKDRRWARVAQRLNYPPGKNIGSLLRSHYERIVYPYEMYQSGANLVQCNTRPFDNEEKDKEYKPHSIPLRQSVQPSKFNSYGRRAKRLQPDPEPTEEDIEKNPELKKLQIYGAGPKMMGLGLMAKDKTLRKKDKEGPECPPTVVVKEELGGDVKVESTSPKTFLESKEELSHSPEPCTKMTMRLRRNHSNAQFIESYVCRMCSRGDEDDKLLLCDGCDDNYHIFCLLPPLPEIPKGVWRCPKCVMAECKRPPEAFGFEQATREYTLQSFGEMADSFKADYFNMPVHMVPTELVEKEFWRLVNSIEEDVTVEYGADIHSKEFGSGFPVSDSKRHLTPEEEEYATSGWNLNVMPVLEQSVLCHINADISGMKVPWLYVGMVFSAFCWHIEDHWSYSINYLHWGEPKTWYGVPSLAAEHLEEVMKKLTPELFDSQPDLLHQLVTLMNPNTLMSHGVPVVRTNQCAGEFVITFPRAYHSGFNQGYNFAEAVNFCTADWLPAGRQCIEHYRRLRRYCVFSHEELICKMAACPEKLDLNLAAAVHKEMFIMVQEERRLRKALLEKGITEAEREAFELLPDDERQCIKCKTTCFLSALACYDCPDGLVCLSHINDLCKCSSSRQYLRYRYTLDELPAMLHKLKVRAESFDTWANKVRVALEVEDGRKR
pIC50: −log10 of the molar value.

{"columns": ["MOL SMILES", "TGT", "COMPARATIVE SIGN", "pIC50"],
 "data": [
  ["Cn1cnc(-c2nccc3c(O)nc(OCCCC(F)(F)F)nc23)c1", "Lysine-specific demethylase 5C [1-789] (Homo sapiens, UniProt P41229)", "<", 3.66],
  ["O=C(O)c1ccncc1Nc1nn(CCN2CCC(F)(F)CC2)c2ccc(F)cc12", "Lysine-specific demethylase 5C [1-789] (Homo sapiens, UniProt P41229)", "=", 5.85],
  ["Cc1[nH]c2c(C#N)cnn2c(=O)c1C(C)C", "Lysine-specific demethylase 5C [1-789] (Homo sapiens, UniProt P41229)", "=", 5.74]
]}
